System: Escherichia coli
Test: Antibacterial activity against Escherichia coli K88 incubated for 12 to 18 hrs by microbroth dilution method
Type: functional
Conditions: time 12-18 hrs
Measurement Type: MIC

Please state, for each entry, its recorded MIC.
1. H-FASSHPSWKKIWKPGIKKWIK-OH
2. H-EMPGYNSWKKIWKPGIKKWIK-OH
3. H-CFASAPRWKKIWKPGIKKWIK-OH
4. H-WKKIWKPGIKKWIK-OH
5. H-WTSNDTAWKKIWKPGIKKWIK-OH
6. H-RLTTMVHWKKIWKPGIKKWIK-OH
7. H-HSDANAWWKKIWKPGIKKWIK-OH

A:
1: 32 µM; 2: 32 µM; 3: 8 µM; 4: 16 µM; 5: 64 µM; 6: 4 µM; 7: 32 µM

Q: Entry "H-YTVSATYWKKIWKPGIKKWIK-OH" : reported MIC = ?
A: 8 µM
